All figures here come from the supplement of paper PMC9170038.

Tested on: MS2 coat protein
Test method notes: apparent KD of MS2 coat protein; designed switch direction (-1 OFF switch, 1 ON switch): -1; higher = weaker reporter binding
Particulars: input ligand: FMN 200 uM
Measured metric: apparent KD of MS2 coat protein (nM)

primary_sequence="UUGAUAUGAGGAUAUUGCUAAGUCGACAUGAGGAUCACCCAUGUGAAGGAAUGUUUAUUGCAAGAAGGCGUCGCGG [Eternabot (L1) Solution 10] (Eterna round: R97, puzzle: Exclusion 5)" measured_metric="apparent KD of MS2 coat protein" unit_of_measurement=nM data_value=49.5
primary_sequence="CAUGUUUGUCGUUGAUCCAACAUGAGGAUCACCCAUGUCUCUUUAGCUUUUUGCUCGUCUUAUCCUCCUUUGUUCAC [JR_STOV1_v2_Sub0101] (Eterna round: R97, puzzle: Sensor, turn-off variant 1)" measured_metric="apparent KD of MS2 coat protein" unit_of_measurement=nM data_value=65.5
